Provide the recorded Kd for the entries that follow.
Target: hBChE (Homo sapiens, UniProt P06276)
Sequence (P06276 29-602): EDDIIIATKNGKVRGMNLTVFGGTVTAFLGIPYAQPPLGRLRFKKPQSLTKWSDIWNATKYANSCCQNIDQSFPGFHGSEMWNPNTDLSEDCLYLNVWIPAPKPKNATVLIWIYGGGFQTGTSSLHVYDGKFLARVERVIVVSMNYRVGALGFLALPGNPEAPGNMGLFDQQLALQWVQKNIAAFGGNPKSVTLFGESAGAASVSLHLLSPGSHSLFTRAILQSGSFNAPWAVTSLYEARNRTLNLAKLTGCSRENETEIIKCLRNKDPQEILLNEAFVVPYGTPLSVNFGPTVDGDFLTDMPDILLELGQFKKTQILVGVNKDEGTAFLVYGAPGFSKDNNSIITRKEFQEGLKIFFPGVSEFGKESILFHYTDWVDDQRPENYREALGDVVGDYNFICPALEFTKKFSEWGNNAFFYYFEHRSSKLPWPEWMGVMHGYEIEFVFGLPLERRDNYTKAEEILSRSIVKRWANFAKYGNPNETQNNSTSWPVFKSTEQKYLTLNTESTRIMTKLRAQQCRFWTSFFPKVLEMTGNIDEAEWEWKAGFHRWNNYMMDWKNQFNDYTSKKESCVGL
Assay: Carbamoylation kinetics on hBChE (time-dependent inhibition, Kc and k3)
Assay type: biochemical
Conditions: carbamoylation, pre-equilibrium constant
Numbers only; they are read as nM.

Request the reported Kd associated with CN1c2ccc(OC(=O)NCCCCCCN3CCNCC3)cc2CN2CCc3ccccc3C21 (stereo not shown) [Compound 19r]
121

Next molecule up: CN1c2ccc(OC(=O)NCCCCCCN3CCc4ccccc4C3)cc2CN2CCc3ccccc3C21 (stereo not shown) [Compound 19j]
3.6

Next molecule up: CN1c2ccc(OC(=O)NCCCCCCCCCCN3CCc4ccccc4C3)cc2CN2CCc3ccccc3C21 (stereo not shown) [Compound 19l]
5.68

The measurements presented in this section are drawn from patent EP3683219A1.
